The reader will find reported kinase still bound, per cent of control values listed item by item below.
Target: STK32C (human) (UniProt Q86UX6)
Sequence (Q86UX6 whole entry, looked up): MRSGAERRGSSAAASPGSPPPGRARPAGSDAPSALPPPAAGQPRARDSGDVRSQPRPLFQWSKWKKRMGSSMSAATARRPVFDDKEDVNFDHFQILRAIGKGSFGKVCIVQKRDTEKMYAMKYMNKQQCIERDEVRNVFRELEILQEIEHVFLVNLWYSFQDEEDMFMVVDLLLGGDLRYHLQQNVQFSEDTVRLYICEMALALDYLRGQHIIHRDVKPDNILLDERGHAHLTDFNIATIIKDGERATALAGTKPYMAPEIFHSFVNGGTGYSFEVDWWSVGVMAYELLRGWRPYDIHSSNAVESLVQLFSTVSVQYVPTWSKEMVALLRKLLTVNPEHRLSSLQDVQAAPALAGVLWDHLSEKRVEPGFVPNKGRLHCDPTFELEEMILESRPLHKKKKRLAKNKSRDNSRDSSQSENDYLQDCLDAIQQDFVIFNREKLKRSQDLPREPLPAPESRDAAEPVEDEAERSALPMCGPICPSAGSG
Assay: KINOMEscan competition binding
Details: compound 10.0 µM

{"COMPOUND": "COc1ccc(-c2ccc3c(N4CCOCC4)nc(N4C[C@@H](C)O[C@@H](C)C4)nc3n2)cc1CO", "SYSTEM TESTED": "STK32C (human) (UniProt Q86UX6)", "kinase still bound, per cent of control": "87%"}
{"COMPOUND": "CC(C)n1nc(-c2cc3cc(O)ccc3[nH]2)c2c(N)ncnc21", "SYSTEM TESTED": "STK32C (human) (UniProt Q86UX6)", "kinase still bound, per cent of control": "69%"}
{"COMPOUND": "CCC(=O)N1CCN(c2ccc(-n3c(=O)ccc4cnc5ccc(-c6cnc7ccccc7c6)cc5c43)cc2C(F)(F)F)CC1", "SYSTEM TESTED": "STK32C (human) (UniProt Q86UX6)", "kinase still bound, per cent of control": "100%"}
{"COMPOUND": "COC(=O)Nc1ccc(-c2nc(N3CCOCC3)c3cnn(C4CCN(C(=O)OC)CC4)c3n2)cc1", "SYSTEM TESTED": "STK32C (human) (UniProt Q86UX6)", "kinase still bound, per cent of control": "89%"}

----------
Target: MAP3K11 (human)
Experiment: KINOMEscan competition binding
Details: compound 10.0 µM

{"COMPOUND": "COC(=O)Nc1ccc(-c2nc(N3CCOCC3)c3cnn(C4CCN(C(=O)OC)CC4)c3n2)cc1", "SYSTEM TESTED": "MAP3K11 (human)", "kinase still bound, per cent of control": "97%"}
{"COMPOUND": "COc1ccc(-c2ccc3c(N4CCOCC4)nc(N4C[C@@H](C)O[C@@H](C)C4)nc3n2)cc1CO", "SYSTEM TESTED": "MAP3K11 (human)", "kinase still bound, per cent of control": "100%"}
{"COMPOUND": "CCC(=O)N1CCN(c2ccc(-n3c(=O)ccc4cnc5ccc(-c6cnc7ccccc7c6)cc5c43)cc2C(F)(F)F)CC1", "SYSTEM TESTED": "MAP3K11 (human)", "kinase still bound, per cent of control": "69%"}
{"COMPOUND": "CC(C)n1nc(-c2cc3cc(O)ccc3[nH]2)c2c(N)ncnc21", "SYSTEM TESTED": "MAP3K11 (human)", "kinase still bound, per cent of control": "79%"}

----------
Target: MST1R (human) (UniProt Q04912)
Sequence (Q04912 whole entry, looked up): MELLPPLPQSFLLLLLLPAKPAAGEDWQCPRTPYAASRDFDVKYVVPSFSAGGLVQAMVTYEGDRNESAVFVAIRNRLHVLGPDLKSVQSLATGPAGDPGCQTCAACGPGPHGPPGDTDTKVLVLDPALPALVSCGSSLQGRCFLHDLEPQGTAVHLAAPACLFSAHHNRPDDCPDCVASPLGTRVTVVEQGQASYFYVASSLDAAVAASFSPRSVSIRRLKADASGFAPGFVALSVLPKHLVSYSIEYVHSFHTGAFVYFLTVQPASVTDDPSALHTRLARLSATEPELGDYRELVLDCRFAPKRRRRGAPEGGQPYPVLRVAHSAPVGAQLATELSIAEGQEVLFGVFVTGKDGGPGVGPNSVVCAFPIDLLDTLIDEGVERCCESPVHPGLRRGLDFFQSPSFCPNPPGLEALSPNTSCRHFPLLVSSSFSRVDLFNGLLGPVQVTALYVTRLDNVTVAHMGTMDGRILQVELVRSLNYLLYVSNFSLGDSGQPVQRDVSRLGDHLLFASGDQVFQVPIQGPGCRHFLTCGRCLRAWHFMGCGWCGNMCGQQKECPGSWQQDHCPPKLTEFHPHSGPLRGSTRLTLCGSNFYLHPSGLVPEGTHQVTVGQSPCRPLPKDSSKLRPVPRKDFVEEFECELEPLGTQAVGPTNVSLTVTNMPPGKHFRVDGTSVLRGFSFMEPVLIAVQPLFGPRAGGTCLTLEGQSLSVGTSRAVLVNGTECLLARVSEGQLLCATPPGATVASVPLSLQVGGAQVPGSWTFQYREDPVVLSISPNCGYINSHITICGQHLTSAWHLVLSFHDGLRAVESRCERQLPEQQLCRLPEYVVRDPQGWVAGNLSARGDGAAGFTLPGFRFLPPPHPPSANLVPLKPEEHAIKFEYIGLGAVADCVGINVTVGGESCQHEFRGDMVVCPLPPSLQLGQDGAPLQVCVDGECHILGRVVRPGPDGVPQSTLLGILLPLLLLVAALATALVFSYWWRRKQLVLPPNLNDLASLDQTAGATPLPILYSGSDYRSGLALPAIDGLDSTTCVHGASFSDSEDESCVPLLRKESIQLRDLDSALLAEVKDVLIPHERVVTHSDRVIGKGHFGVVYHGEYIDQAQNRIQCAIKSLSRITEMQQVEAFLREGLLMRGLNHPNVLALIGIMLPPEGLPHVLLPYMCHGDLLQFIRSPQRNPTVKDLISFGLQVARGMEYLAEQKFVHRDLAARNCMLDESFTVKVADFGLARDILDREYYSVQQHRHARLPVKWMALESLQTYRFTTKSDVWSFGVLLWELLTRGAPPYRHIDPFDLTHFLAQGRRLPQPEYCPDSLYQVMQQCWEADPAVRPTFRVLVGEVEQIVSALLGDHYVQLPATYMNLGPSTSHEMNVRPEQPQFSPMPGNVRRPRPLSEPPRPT
Assay: KINOMEscan competition binding
Conditions: compound 10.0 µM
// reported kinase still bound, per cent of control for each item listed
EXPERIMENTAL ENDPOINT: kinase still bound, per cent of control (%)

{"COMPOUND": "COC(=O)Nc1ccc(-c2nc(N3CCOCC3)c3cnn(C4CCN(C(=O)OC)CC4)c3n2)cc1", "EXPERIMENTAL ENDPOINT": "kinase still bound, per cent of control", "VAL": 82}
{"COMPOUND": "COc1ccc(-c2ccc3c(N4CCOCC4)nc(N4C[C@@H](C)O[C@@H](C)C4)nc3n2)cc1CO", "EXPERIMENTAL ENDPOINT": "kinase still bound, per cent of control", "VAL": 99}
{"COMPOUND": "CCC(=O)N1CCN(c2ccc(-n3c(=O)ccc4cnc5ccc(-c6cnc7ccccc7c6)cc5c43)cc2C(F)(F)F)CC1", "EXPERIMENTAL ENDPOINT": "kinase still bound, per cent of control", "VAL": 55}
{"COMPOUND": "CC(C)n1nc(-c2cc3cc(O)ccc3[nH]2)c2c(N)ncnc21", "EXPERIMENTAL ENDPOINT": "kinase still bound, per cent of control", "VAL": 89}
